Reported viability, T/C values for the following compounds.
# Test system: 636577-100-R-J1-PDC complex spheroid viability
# ASSAY_REMARKS: Anticancer human tumor 636577-100-R-J1-PDC patient-derived endometrial adenocarcinoma cell line growth inhibition [GQUAD]
# RUN_PARAMETERS: second compound 1 µM; first compound 0.0999 µM; stronger effect = lower value

* Cc1[nH]c2ccccc2c1CCNCc1ccc(/C=C/C(=O)NO)cc1 + Cc1[nH]c2ccc(F)cc2c1-c1nc2c3cccnc3c3ncccc3c2[nH]1 | 9.36%

Incoming: Notebook: pull reported viability, T/C for 636577-100-R-J1-PDC complex spheroid viability, entry Cc1[nH]c2ccccc2c1CCNCc1ccc(/C=C/C(=O)NO)cc1 + CN(C)c1ccc(Nc2c3ccc(NC(=O)CCN4CCCC4)cc3nc3cc(NC(=O)CCN4CCCC4)ccc23)cc1
Outgoing: 9.95%

Incoming: Try CCc1c2c(nc3ccc(O)cc13)-c1cc3c(c(=O)n1C2)COC(=O)[C@]3(O)CC + CN(C)c1ccc(Nc2c3ccc(NC(=O)CCN4CCCC4)cc3nc3cc(NC(=O)CCN4CCCC4)ccc23)cc1 next.
Outgoing: 19.4%

* * *

# System: 636577-100-R-J1-PDC complex spheroid viability
# ASSAY_REMARKS: Anticancer human tumor 636577-100-R-J1-PDC cell line growth inhibition [GQUAD];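 note: viability read after seven days of drug exposure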
# RUN_PARAMETERS: curve of first compound; second compound 0.316 µM
pIC50: −log10 of the molar value.
MEASURED_PARAMETER: pIC50

# count of solved cases: 3
- COc1ccc([C@@H](O)c2cc(-c3ncnc4cc(N5CCOCC5)ccc34)c(F)cc2Cl)nn1 + Cc1[nH]c2ccc(F)cc2c1-c1nc2c3cccnc3c3ncccc3c2[nH]1: 6.17
- CCCS(=O)(=O)Nc1ccc(F)c(C(=O)c2c[nH]c3ncc(-c4ccc(Cl)cc4)cc23)c1F + Cc1cnc(CNC(=O)c2c(=O)c3ccc(N4CCCN(C)CC4)nc3n3c2sc2ccccc23)cn1: > 7.50
- COc1cccc2c1C(=O)c1c(O)c3c(c(O)c1C2=O)CC(O)(C(=O)CO)CC3OC1CC(N)C(O)C(C)O1 (centres undefined) + Cc1[nH]c2ccc(F)cc2c1-c1nc2c3cccnc3c3ncccc3c2[nH]1: > 7.50

Incoming: What value of pIC50 has been reported for the following compound? CCc1c2c(nc3ccc(O)cc13)-c1cc3c(c(=O)n1C2)COC(=O)[C@]3(O)CC + CN(C)c1ccc(Nc2c3ccc(NC(=O)CCN4CCCC4)cc3nc3cc(NC(=O)CCN4CCCC4)ccc23)cc1
Outgoing: > 9.00

Incoming: Try C=CCn1c(=O)c2cnc(Nc3ccc(N4CCN(C)CC4)cc3)nc2n1-c1cccc(C(C)(C)O)n1 + Cc1cnc(CNC(=O)c2c(=O)c3ccc(N4CCCN(C)CC4)nc3n3c2sc2ccccc23)cn1 next.
Outgoing: > 7.50

Incoming: Try O=c1[nH]cc(F)c(=O)[nH]1 + Cc1cnc(CNC(=O)c2c(=O)c3ccc(N4CCCN(C)CC4)nc3n3c2sc2ccccc23)cn1 next.
Outgoing: > 7.50

Incoming: Try CC1COCCN1c1cc(C2(S(C)(=N)=O)CC2)nc(-c2ccnc3[nH]ccc23)n1 (centres undefined) + Cc1[nH]c2ccc(F)cc2c1-c1nc2c3cccnc3c3ncccc3c2[nH]1 next.
Outgoing: 6.17

Incoming: Try CC(C)(O)C1CCC(Nc2ccc3ncc(-c4cccc(C(F)(F)F)c4)n3n2)CC1 (centres undefined) + Cc1[nH]c2ccc(F)cc2c1-c1nc2c3cccnc3c3ncccc3c2[nH]1 next.
Outgoing: 5.75

* * *

Reported IC50 values for the following compounds.
# Test system: 636577-100-R-J1-PDC complex spheroid viability
# ASSAY_REMARKS: Anticancer human tumor 636577-100-R-J1-PDC cell line growth inhibition [GQUAD];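 note: viability read after seven days of drug exposure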
# RUN_PARAMETERS: curve of first compound; second compound 0.316 µM

* COc1ncnc(C2CC2)c1-c1ncc2cnn(Cc3ccc(-c4nc(C(F)(F)F)cn4C(C)C)cc3)c2n1 + Cc1[nH]c2ccc(F)cc2c1-c1nc2c3cccnc3c3ncccc3c2[nH]1 | > 10000 nM
* COc1cccc2c1C(=O)c1c(O)c3c(c(O)c1C2=O)CC(O)(C(=O)CO)CC3OC1CC(N)C(O)C(C)O1 (stereo not given) + Cc1cnc(CNC(=O)c2c(=O)c3ccc(N4CCCN(C)CC4)nc3n3c2sc2ccccc23)cn1 | < 31.6 nM
* Cn1ncnc1[C@H]1c2n[nH]c(=O)c3cc(F)cc(c23)N[C@@H]1c1ccc(F)cc1 + Cc1cnc(CNC(=O)c2c(=O)c3ccc(N4CCCN(C)CC4)nc3n3c2sc2ccccc23)cn1 | < 0.999 nM
* CC1COCCN1c1cc(C2(O)CC3CCC(C2)O3)c2cnn(-c3ccn[nH]3)c2n1 (stereo not given) + Cc1cnc(CNC(=O)c2c(=O)c3ccc(N4CCCN(C)CC4)nc3n3c2sc2ccccc23)cn1 | < 31.6 nM

Incoming: What value of IC50 has been reported for the following compound? Cn1ncnc1[C@H]1c2n[nH]c(=O)c3cc(F)cc(c23)N[C@@H]1c1ccc(F)cc1 + CN(C)c1ccc(Nc2c3ccc(NC(=O)CCN4CCCC4)cc3nc3cc(NC(=O)CCN4CCCC4)ccc23)cc1
Outgoing: 34.6 nM

* * *

# Test system: 636577-100-R-J1-PDC complex spheroid viability
# ASSAY_REMARKS: Anticancer human tumor 636577-100-R-J1-PDC cell line growth inhibition [GQUAD];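 note: viability read after seven days of drug exposure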;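 for viability, T/C: luminescence signal used as a proxy for viable cells; 100% = DMSO vehicle control wells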
# RUN_PARAMETERS: second compound 3.16 µM; first compound 0.1 µM; stronger effect = lower value
Reported viability, T/C values for the following compounds.
Provide the reading as a plain figure in %.

# count of solved cases: 3
- COc1cccc2c1C(=O)c1c(O)c3c(c(O)c1C2=O)CC(O)(C(=O)CO)CC3OC1CC(N)C(O)C(C)O1 (centres undefined) + Cc1[nH]c2ccc(F)cc2c1-c1nc2c3cccnc3c3ncccc3c2[nH]1: 18.4
- CC1COCCN1c1cc(C2(S(C)(=N)=O)CC2)nc(-c2ccnc3[nH]ccc23)n1 (centres undefined) + Cc1cnc(CNC(=O)c2c(=O)c3ccc(N4CCCN(C)CC4)nc3n3c2sc2ccccc23)cn1: 18.5
- CC(=O)O[C@H]1C(=O)[C@@]2(C)[C@H]([C@H](OC(=O)c3ccccc3)[C@]3(O)C[C@H](OC(=O)[C@H](O)[C@@H](NC(=O)c4ccccc4)c4ccccc4)C(C)=C1C3(C)C)[C@]1(OC(C)=O)CO[C@@H]1C[C@@H]2O + CN(C)c1ccc(Nc2c3ccc(NC(=O)CCN4CCCC4)cc3nc3cc(NC(=O)CCN4CCCC4)ccc23)cc1: 12.7

// below: viability, T/C requested for another compound
Incoming: What value of viability, T/C has been reported for the following compound? COc1cccc2c1C(=O)c1c(O)c3c(c(O)c1C2=O)CC(O)(C(=O)CO)CC3OC1CC(N)C(O)C(C)O1 (centres undefined) + Cc1cnc(CNC(=O)c2c(=O)c3ccc(N4CCCN(C)CC4)nc3n3c2sc2ccccc23)cn1
Outgoing: 17.1

* * *

# Tested on: 636577-100-R-J1-PDC complex spheroid viability
# ASSAY_REMARKS: Anticancer human tumor 636577-100-R-J1-PDC cell line growth inhibition [GQUAD];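 note: viability read after seven days of drug exposure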;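 for viability, T/C: luminescence signal used as a proxy for viable cells; 100% = DMSO vehicle control wells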
# RUN_PARAMETERS: second compound 10 µM; first compound 0.316 µM; stronger effect = lower value
MEASURED_PARAMETER: viability, T/C (%)
Provide the reading as a plain figure in %.

• Cc1cccc(N(C)C(=O)C2C(O)CCN2c2nc(C)cc(C(F)(F)F)c2C#N)c1 (configuration not stated) + CN(C)c1ccc(Nc2c3ccc(NC(=O)CCN4CCCC4)cc3nc3cc(NC(=O)CCN4CCCC4)ccc23)cc1 = 4.7

// below: viability, T/C requested for another compound
Incoming: What value of viability, T/C has been reported for the following compound? CC(=O)O[C@H]1C(=O)[C@@]2(C)[C@H]([C@H](OC(=O)c3ccccc3)[C@]3(O)C[C@H](OC(=O)[C@H](O)[C@@H](NC(=O)c4ccccc4)c4ccccc4)C(C)=C1C3(C)C)[C@]1(OC(C)=O)CO[C@@H]1C[C@@H]2O + Cc1cnc(CNC(=O)c2c(=O)c3ccc(N4CCCN(C)CC4)nc3n3c2sc2ccccc23)cn1
Outgoing: 17.8

* * *

# Test system: 636577-100-R-J1-PDC complex spheroid viability
# ASSAY_REMARKS: Anticancer human tumor 636577-100-R-J1-PDC cell line growth inhibition [GQUAD];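 note: viability read after seven days of drug exposure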
# RUN_PARAMETERS: curve of first compound; second compound 0.1 µM
# Excerpt: DNA G-quadruplex Stabilizer Agents in Combinations in Complex Spheroids A high-throughput screen of multi-cell type tumor spheroids was designed to identify active combinations of DNA G-quadruplex stabilizer agents and targeted small molecules. […] Compounds. […] If the clinical Cmax for an agent had not been determined, the highest concentration tested was 10 microM. […]
MEASURED_PARAMETER: IC50

* C#Cc1c(F)ccc2cc(O)cc(-c3ncc4c(N5CC6CCC(C5)N6)nc(OCC56CCCN5CC(F)C6)nc4c3F)c12 (configuration not stated) + Cc1cnc(CNC(=O)c2c(=O)c3ccc(N4CCCN(C)CC4)nc3n3c2sc2ccccc23)cn1 | < 31.6 nM
* Nc1ccn(C2OC(CO)C(O)C2(F)F)c(=O)n1 (configuration not stated) + CN(C)c1ccc(Nc2c3ccc(NC(=O)CCN4CCCC4)cc3nc3cc(NC(=O)CCN4CCCC4)ccc23)cc1 | < 31.6 nM
* COc1ccc([C@@H](O)c2cc(-c3ncnc4cc(N5CCOCC5)ccc34)c(F)cc2Cl)nn1 + Cc1[nH]c2ccc(F)cc2c1-c1nc2c3cccnc3c3ncccc3c2[nH]1 | 586 nM
* CC(=O)O[C@H]1C(=O)[C@@]2(C)[C@H]([C@H](OC(=O)c3ccccc3)[C@]3(O)C[C@H](OC(=O)[C@H](O)[C@@H](NC(=O)c4ccccc4)c4ccccc4)C(C)=C1C3(C)C)[C@]1(OC(C)=O)CO[C@@H]1C[C@@H]2O + Cc1[nH]c2ccc(F)cc2c1-c1nc2c3cccnc3c3ncccc3c2[nH]1 | < 31.6 nM

Incoming: What value of IC50 has been reported for the following compound? CCCS(=O)(=O)Nc1ccc(F)c(C(=O)c2c[nH]c3ncc(-c4ccc(Cl)cc4)cc23)c1F + CN(C)c1ccc(Nc2c3ccc(NC(=O)CCN4CCCC4)cc3nc3cc(NC(=O)CCN4CCCC4)ccc23)cc1
Outgoing: 6470 nM

Incoming: Try COc1cc(C2c3cc4c(cc3C(OC3OC5COC(C)OC5C(O)C3O)C3COC(=O)C23)OCO4)cc(OC)c1O (configuration not stated) + Cc1[nH]c2ccc(F)cc2c1-c1nc2c3cccnc3c3ncccc3c2[nH]1 next.
Outgoing: 68.8 nM

Incoming: Try O=c1[nH]cc(F)c(=O)[nH]1 + CN(C)c1ccc(Nc2c3ccc(NC(=O)CCN4CCCC4)cc3nc3cc(NC(=O)CCN4CCCC4)ccc23)cc1 next.
Outgoing: 3690 nM
